# Assay Info: Tmax in C57 mouse at 30 mg/kg, po administered as DMSO formulation
# Format: ADME, organism-based
# Set-up: dose 30 mg/kg, route oral
# Recorded Conditions: in vivo
Measurement Label: Tmax (min)
One number for each entry, in min.

Returns the measured Tmax for the input compound. Input: COC(=O)c1c(Cc2ccc(C(=O)N[C@@H]3[C@@H]4C[C@@H]5C[C@H]3C[C@@](O)(C5)C4)cc2)c(=O)c2cccnc2n1-c1ccccc1
15

---

# Assay Info: Mean residence time in C57 mouse at 5 mg/kg, iv administered as DMSO formulation
# Format: ADME, organism-based
# Parameters: dose 5 mg/kg, route intravenous
# Recorded Conditions: in vivo
Measurement Label: MRT (min)
One number for each entry, in min.

Returns the measured MRT for the input compound. Input: COC(=O)c1c(Cc2ccc(C(=O)N[C@@H]3[C@@H]4C[C@@H]5C[C@H]3C[C@@](O)(C5)C4)cc2)c(=O)c2cccnc2n1-c1ccccc1
36
